Molecular target: PIP4K2C (human)
Test: KINOMEscan competition binding
Details: compound 10.0 µM
# note: exactly 50% is not below, so it is label 0; use label 1 for kinase still bound, per cent of control strictly under it

Illustrative cases are given below, each with its answer.
Please state whether kinase still bound, per cent of control is below 50% for COc1cc2ncnc(-n3nc(-c4ccccn4)nc3N)c2cc1OC
label 1

Does this molecule meet the criterion kinase still bound, per cent of control < 50%? CCN1CCN(C(=O)Cc2ccc(Nc3ncc(F)c(Nc4ccc(C(=O)Nc5ccccc5Cl)cc4)n3)cc2)CC1
label 1

Lab note: confirm whether the reported kinase still bound, per cent of control for this molecule is below 50%, equality not counting. molecule: N#CCNC(=O)c1ccc(-c2ccnc(Nc3ccc(N4CCOCC4)cc3)n2)cc1
label 0

Record COc1cc2ncn(-c3cc(OCc4ccccc4C(F)(F)F)c(C(N)=O)s3)c2cc1OC : is its kinase still bound, per cent of control strictly below 50%?
label 1

Check if kinase still bound, per cent of control falls below 50% for NC(=O)Nc1cc(-c2cccc(F)c2)sc1C(=O)N[C@@H]1CCCNC1 .
label 0

# strict comparison: is reported kinase still bound, per cent of control < 50%? input = COc1cc(C(=O)N2CCC(N3CCN(C)CC3)CC2)ccc1Nc1ncc2c(n1)N(C)c1ccccc1C(=O)N2C
label 1

Could you please tell me whether kinase still bound, per cent of control recorded for COc1ccc(N(C(=O)Oc2c(C)cccc2C)c2ccnc(Nc3ccc(N4CCN(C)CC4)cc3)n2)c(OC)c1 is less than 50%?
label 0

Quick check: does O=C1NC(=O)/C(=C/c2ccc3nccc(-c4ccncc4)c3c2)S1 have kinase still bound, per cent of control under 50%?
label 1

Please indicate whether the reported kinase still bound, per cent of control of O=C(Nc1cccc(Nc2ncc(Br)c(NCCc3cnc[nH]3)n2)c1)N1CCCC1 is strictly below 50%.
label 1

Does the reported kinase still bound, per cent of control of C=CC(=O)Nc1cc(-n2c(=O)ccc3cnc4ccc(-c5cn[nH]c5)cc4c32)ccc1C stay below 50%?
label 1

Others:
Please state whether kinase still bound, per cent of control is below 50% for C[C@@H](Oc1cc(-c2cnn(C3CCNCC3)c2)cnc1N)c1c(Cl)ccc(F)c1Cl
label 0

Report whether reported kinase still bound, per cent of control is lower than 50% (strictly) for CNC(=O)c1cc(Oc2ccc(NC(=O)Nc3ccc(Cl)c(C(F)(F)F)c3)cc2)ccn1
label 0

Please state whether kinase still bound, per cent of control is below 50% for O=c1cc(N2CCOCC2)oc2c(-c3cccc4c3sc3ccccc34)cccc12
label 0

Say whether its kinase still bound, per cent of control is strictly beneath 50%. Entry: CN(C)C/C=C/C(=O)Nc1ccc(C(=O)Nc2cccc(Nc3nccc(-c4cccnc4)n3)c2)cc1
label 1

In the record for COCC(=O)NC/C=C/c1ccc2ncnc(Nc3ccc(Oc4ccc(C)nc4)c(C)c3)c2c1 , is kinase still bound, per cent of control less than 50%?
label 0
